Where these numbers come from: patent US20250263370A1

- Study target: BRD4 BD2 (Homo sapiens (Human), UniProt O60885)
- Assay info: NanoBRET bromodomain assay, NanoLuc-BRD4-BD2 fusion in HEK293 cells;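 further: tracer displacement BRET read in transfected cells after 2 h compound exposure at 37 °C, signal in milliBRET units corrected against no-tracer background wells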
- Test parameters: IC50 for BRD4 BD1 divided by IC50 for BRD4 BD2; qualitative if an IC50 is at the upper limit
Readout label: Fold selectivity

CCNC(=O)c1cc(OC(C)c2cccc(C#N)c2)c(C(=O)NC)[nH]1 (centres unmarked) ... — (Fold ≥0 and ≤2)
CCNC(=O)c1cc(OC(C)c2ccccc2F)c(C(=O)NC)[nH]1 (single isomer, unassigned) [Example 20] ... XX (Fold >50 and ≤200)
CNC(=O)c1[nH]c(C(=O)N[C@H]2CC[C@H](O)CC2)cc1O[C@@H](C)c1ccnnc1 (single isomer, unassigned) [Example 92] ... — (Fold ≥0 and ≤2)
CCNC(=O)c1cc(OC(C)c2ccccc2C(F)(F)F)c(C(=O)NC)[nH]1 (racemic) ... XX (Fold >50 and ≤200)
